The values you see were collected from patent US10336761B2.

Target: HIS-TGFβR1 T204D (Homo sapiens (Human), UniProt P36897, T204D)
Sequence (P36897 34-503 T204D): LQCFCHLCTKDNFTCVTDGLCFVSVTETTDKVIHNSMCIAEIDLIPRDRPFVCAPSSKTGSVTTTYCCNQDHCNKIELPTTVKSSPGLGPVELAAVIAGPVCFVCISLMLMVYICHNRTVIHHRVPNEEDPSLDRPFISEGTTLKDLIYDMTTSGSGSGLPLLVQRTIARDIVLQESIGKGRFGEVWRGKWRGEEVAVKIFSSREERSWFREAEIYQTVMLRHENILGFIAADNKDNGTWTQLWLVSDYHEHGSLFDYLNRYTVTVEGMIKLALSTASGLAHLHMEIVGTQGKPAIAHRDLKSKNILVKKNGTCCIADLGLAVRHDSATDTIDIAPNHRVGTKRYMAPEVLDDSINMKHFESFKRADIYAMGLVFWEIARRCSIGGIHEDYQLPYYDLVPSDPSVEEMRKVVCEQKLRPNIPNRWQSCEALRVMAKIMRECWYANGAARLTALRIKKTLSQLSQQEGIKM
Experiment: HTRF probe-displacement assay, HIS-TGFβR1 T204D
Conditions: 1 hour at room temperature

{"compound string": "Fc1cnccc1Nc1nc(-c2ccccn2)nn2ccc(CNC3CCNCC3)c12", "IC50": "9.1 nM"}
{"compound string": "CC(=O)Nc1cc(Nc2nc(-c3ccc(F)cn3)nn3cccc23)ccn1", "IC50": "3.6 nM"}
{"compound string": "CC(C)(C)C(=O)Nc1cc(Nc2nc(-c3cccc(C(F)(F)F)n3)nn3cccc23)ccn1", "IC50": "160 nM"}
{"compound string": "COc1cccc(-c2nc(Nc3ccncc3F)c3cc(CNC[C@@H](F)C(C)(C)O)cn3n2)n1", "IC50": "880 nM"}
{"compound string": "O=C(NCCOCCO)c1cnccc1Nc1nc(-c2cccc(C(F)F)n2)nn2cccc12", "IC50": "23 nM"}

* * *

Target: HIS-TGFβR1 T204D (Homo sapiens (Human), UniProt P36897, T204D)
Assay: HTRF probe-displacement assay, HIS-TGFβR1 T204D
Conditions: 1 hour at room temperature
// classify: if (IC50 < 3 nM) 1 else 0

{"compound": "FC(F)(F)c1cccc(-c2nc(Nc3ccnc(-c4cc[nH]n4)c3)c3cccn3n2)n1", "target under test": "HIS-TGFβR1 T204D (Homo sapiens (Human), UniProt P36897, T204D)", "assigned category": 0}
{"compound": "O=C(NCCN1CCNCC1)c1cnccc1Nc1nc(-c2ccccn2)nn2cccc12", "target under test": "HIS-TGFβR1 T204D (Homo sapiens (Human), UniProt P36897, T204D)", "assigned category": 0}
{"compound": "COc1cccc(-c2nc(Nc3ccncc3F)c3c(C(O)CN4CCC(F)(F)CC4)ccn3n2)n1 (stereo not shown)", "target under test": "HIS-TGFβR1 T204D (Homo sapiens (Human), UniProt P36897, T204D)", "assigned category": 0}
{"compound": "O=C(CCN1CC(F)(F)C1)Nc1cc(Nc2nc(-c3cccc(C(F)(F)F)n3)nn3cccc23)ccn1", "target under test": "HIS-TGFβR1 T204D (Homo sapiens (Human), UniProt P36897, T204D)", "assigned category": 1}
{"compound": "O=C(NCCN1CCCC1)c1cnccc1Nc1nc(-c2cccc(C(F)(F)F)n2)nn2cccc12", "target under test": "HIS-TGFβR1 T204D (Homo sapiens (Human), UniProt P36897, T204D)", "assigned category": 0}
{"compound": "COc1cccc(-c2nc(Nc3ccnc(NCCN4CCOCC4)c3)c3c(C)ccn3n2)n1", "target under test": "HIS-TGFβR1 T204D (Homo sapiens (Human), UniProt P36897, T204D)", "assigned category": 0}
{"compound": "CC(C)(C)CC(=O)Nc1cc(Nc2nc(-c3cccc(C(F)(F)F)n3)nn3cccc23)ccn1", "target under test": "HIS-TGFβR1 T204D (Homo sapiens (Human), UniProt P36897, T204D)", "assigned category": 0}
{"compound": "COc1cccc(-c2nc(Nc3ccncc3F)c3c(CNCC(C)(C)O)ccn3n2)n1", "target under test": "HIS-TGFβR1 T204D (Homo sapiens (Human), UniProt P36897, T204D)", "assigned category": 0}
{"compound": "CC(=O)N1CCN(CC(=O)Nc2cc(Nc3nc(-c4cccc(C(F)(F)F)n4)nn4cccc34)ccn2)CC1", "target under test": "HIS-TGFβR1 T204D (Homo sapiens (Human), UniProt P36897, T204D)", "assigned category": 1}
{"compound": "COCC(=O)Nc1cc(Nc2nc(-c3cccc(C(F)(F)F)n3)nn3cccc23)ccn1", "target under test": "HIS-TGFβR1 T204D (Homo sapiens (Human), UniProt P36897, T204D)", "assigned category": 1}
{"compound": "Fc1cnccc1Nc1nc(-c2ccccn2)nn2ccc(CNCC3CNC3)c12", "target under test": "HIS-TGFβR1 T204D (Homo sapiens (Human), UniProt P36897, T204D)", "assigned category": 0}
{"compound": "COc1cccc(-c2nc(Nc3ccncc3COCCCN3CCOCC3)c3cccn3n2)n1", "target under test": "HIS-TGFβR1 T204D (Homo sapiens (Human), UniProt P36897, T204D)", "assigned category": 0}
